# assay.method.text: Surface tension of mixture A with water or diols
# Type: physicochemical
# run.conditions: 10 parts added to 90 parts of mixture A; application concentration of 1% in water
experimental.readout: surface tension (change against addition of 10 parts of water)

compound: CC(O)CO (stereo not shown) [Propylene glycol, reference compound]
val: not observed

compound: CCCCC(CC)COCC(O)CO (stereo not shown)
val: significantly decreased

compound: CCCCCCC(O)CO (stereo not shown)
val: significantly decreased

compound: OCC(O)CO [Glycerol (85%), Glycerol, reference compound]
val: not observed

----------
Reported Surface tension, 1% in water, mN/m values are given for each entry in this list.
# assay.method.text: Surface tension of mixture A with water or diols
# Format: physicochemical
# run.conditions: 90.0 parts mixture A + 10.0 parts of the substance; 1% in water

Solved entries (count: 3):
molecule: O
Surface tension, 1% in water, mN/m: 71.9 mN/m
--
molecule: CCCCC(CC)COCC(O)CO (centres unmarked)
Surface tension, 1% in water, mN/m: 35.6 mN/m
--
molecule: CCCCCCC(O)CO (centres unmarked)
Surface tension, 1% in water, mN/m: 44.7 mN/m

The recorded Surface tension, 1% in water, mN/m for entry OCC(O)CO [Glycerol (85%), Glycerol, reference compound] equals 72.2 mN/m

The recorded Surface tension, 1% in water, mN/m for entry CC(O)CO (centres unmarked) [Propylene glycol, reference compound] equals 72.3 mN/m

----------
# assay.method.text: Solubility of diols in fully demineralized water
# Assay type: physicochemical
experimental.readout: Solubility (%)
Unit % implied. Number only.

molecule: CCCCC(CC)COCC(O)CO (centres unmarked)
Solubility / %: 0.1

Proceed to the following item.
The recorded Solubility for entry CCCCCCC(O)CO (centres unmarked) equals 0.7

----------
Reported Solubility values are given for each entry in this list.
# assay.method.text: Solubility of diols in fully demineralized water
# Format: physicochemical

compound: CCCCCCCCCCCCOCC(O)CO (stereo not drawn) [1-dodecyl glycerol ether]
Solubility: < 0.1%

Proceed to the following item.
The recorded Solubility for entry CCCCCCCCCCC(O)CO (stereo not drawn) [1,2-dodecanediol] equals < 0.1%
